This document collects IC50 values reported for CDK2 (human) (UniProt P24941).

Examples from the recorded data:
{"COMPOUND": "O=C(Nc1ccc(-n2cncn2)c(F)c1)c1ccc(C(=O)Nc2ccccc2OC2CCCCC2)s1", "IC50": "≥ 40 µM"}
{"COMPOUND": "O=C(Nc1ccc(-n2cncn2)cc1)c1ccc(C(=O)N[C@@H]2CCNC2)s1", "IC50": "≥ 40 µM"}
{"COMPOUND": "O=C(NCCc1ccccn1)c1ccc(C(=O)Nc2ccc(-n3cncn3)cc2)s1", "IC50": "≥ 40 µM"}
{"COMPOUND": "COc1ccc(NC(=O)c2ccc(C(=O)N3CCC(c4ccccn4)C3)s2)c(C)c1 (centres undefined)", "IC50": "1 to 40 µM"}
{"COMPOUND": "COc1ccc(NC(=O)c2ccc(C(=O)Nc3ccc(-c4nnc[nH]4)cc3)s2)c(C)c1", "IC50": "≤ 1 µM"}

Tested system CDK2 (human) (UniProt P24941); IC50 recorded for "COc1ccc(NC(=O)c2ccc(C(=O)Nc3ccc(N4CCOCC4)nc3)s2)c(C)c1" was ≥ 40 µM

Tested system CDK2 (human) (UniProt P24941); IC50 recorded for "COc1ccc(C(=O)Nc2ccc(C(=O)Nc3ccc(-n4cncn4)c(F)c3)s2)c(C)c1" was ≤ 1 µM

Tested system CDK2 (human) (UniProt P24941); IC50 recorded for COc1ccc(C(=O)Nc2ccc(C(=O)N3CCC(c4ccccn4)C3)s2)c(C)c1 (centres undefined) was ≥ 40 µM

Tested system CDK2 (human) (UniProt P24941); IC50 recorded for "COc1ccc(NC(=O)c2ccc(C(=O)Nc3ccc(-c4csnn4)cc3)s2)c(C)c1" was ≥ 40 µM

---

This document collects IC50 values reported for CDK2 (human).

Examples from the recorded data:
{"QUERY SMILES": "COc1ccc(NC(=O)c2ccc(C(=O)Nc3ccc(-n4cncn4)cc3)s2)cc1O", "RESULT": "≥ 40 µM"}
{"QUERY SMILES": "O=C(Nc1ccc(-n2cncn2)cc1)c1ccc(C(=O)N2CCc3ccccc3C2)s1", "RESULT": "1 to 40 µM"}
{"QUERY SMILES": "O=C(NC[C@@H]1CCNC1)c1ccc(C(=O)Nc2ccc(-n3cncn3)cc2)s1", "RESULT": "≥ 40 µM"}
{"QUERY SMILES": "O=C(Nc1ccc(-n2cncn2)cc1)c1ccc(C(=O)N[C@H]2CCc3ccccc32)s1", "RESULT": "1 to 40 µM"}
{"QUERY SMILES": "Cc1ccccc1C(=O)Nc1ccc(C(=O)Nc2ccc(-n3cncn3)cc2)o1", "RESULT": "≥ 40 µM"}

Tested system CDK2 (human); IC50 recorded for "O=C(Nc1ccc(-n2cncn2)cc1)c1ccc(C(=O)Nc2cccc(Cl)c2)s1" was 1 to 40 µM

Tested system CDK2 (human); IC50 recorded for "C[C@@H](NC(=O)c1ccc(C(=O)Nc2ccc(-n3cncn3)cc2)s1)C1CCCCC1" was ≥ 40 µM

Tested system CDK2 (human); IC50 recorded for "CN(C)CCNC(=O)c1ccc(C(=O)Nc2ccc(-n3cncn3)c(F)c2)o1" was ≥ 40 µM

Tested system CDK2 (human); IC50 recorded for "Cc1cc(NC(=O)c2ccc(C(=O)Nc3ccc(-n4cncn4)cc3)s2)n(C)n1" was 1 to 40 µM

Tested system CDK2 (human); IC50 recorded for "COc1cccc(NC(=O)c2ccc(C(=O)Nc3ccc(-n4cncn4)cc3)s2)c1" was ≥ 40 µM

Tested system CDK2 (human); IC50 recorded for "O=C(NC[C@H](O)c1ccccc1)c1ccc(C(=O)Nc2ccc(-n3cncn3)cc2)s1" was ≥ 40 µM

Tested system CDK2 (human); IC50 recorded for "O=C(NCc1ccccc1)c1ccc(C(=O)Nc2ccc(-n3cncn3)cc2)s1" was 1 to 40 µM

Tested system CDK2 (human); IC50 recorded for "Cc1cc(Cn2ccnc2)ccc1NC(=O)c1ccc(C(=O)Nc2ccc(-n3cncn3)c(F)c2)s1" was ≤ 1 µM

Tested system CDK2 (human); IC50 recorded for "COc1ccc(NC(=O)c2ccc(C(=O)Nc3ccc(-n4cncn4)c(F)c3)s2)c(C)c1" was ≤ 1 µM

Tested system CDK2 (human); IC50 recorded for "Cc1cc(CNC(=O)c2ccc(C(=O)Nc3ccc(-n4cncn4)cc3)s2)no1" was ≥ 40 µM

Tested system CDK2 (human); IC50 recorded for "O=C(NCc1cccnc1)c1ccc(C(=O)Nc2ccc(-n3cncn3)cc2)s1" was ≥ 40 µM

Tested system CDK2 (human); IC50 recorded for "COc1ccc(NC(=O)c2ccc(C(=O)Nc3ccc(N4CCOCC4)cc3)s2)c(C)c1" was ≥ 40 µM

Tested system CDK2 (human); IC50 recorded for "Cc1ccsc1CNC(=O)c1ccc(C(=O)Nc2ccc(-n3cncn3)cc2)s1" was 1 to 40 µM

Tested system CDK2 (human); IC50 recorded for "Cc1cnc(CNC(=O)c2ccc(C(=O)Nc3ccc(-n4cncn4)cc3)s2)cn1" was ≥ 40 µM

Tested system CDK2 (human); IC50 recorded for "O=C(Nc1ccc(-n2cncn2)c(F)c1)c1ccc(C(=O)Nc2ccccc2COc2ccccc2)s1" was ≥ 40 µM
